# TARGET OR SYSTEM: PI3-kinase p110-delta/p85-alpha (Homo sapiens, UniProt O00329)
# Sequence (P27986 whole entry): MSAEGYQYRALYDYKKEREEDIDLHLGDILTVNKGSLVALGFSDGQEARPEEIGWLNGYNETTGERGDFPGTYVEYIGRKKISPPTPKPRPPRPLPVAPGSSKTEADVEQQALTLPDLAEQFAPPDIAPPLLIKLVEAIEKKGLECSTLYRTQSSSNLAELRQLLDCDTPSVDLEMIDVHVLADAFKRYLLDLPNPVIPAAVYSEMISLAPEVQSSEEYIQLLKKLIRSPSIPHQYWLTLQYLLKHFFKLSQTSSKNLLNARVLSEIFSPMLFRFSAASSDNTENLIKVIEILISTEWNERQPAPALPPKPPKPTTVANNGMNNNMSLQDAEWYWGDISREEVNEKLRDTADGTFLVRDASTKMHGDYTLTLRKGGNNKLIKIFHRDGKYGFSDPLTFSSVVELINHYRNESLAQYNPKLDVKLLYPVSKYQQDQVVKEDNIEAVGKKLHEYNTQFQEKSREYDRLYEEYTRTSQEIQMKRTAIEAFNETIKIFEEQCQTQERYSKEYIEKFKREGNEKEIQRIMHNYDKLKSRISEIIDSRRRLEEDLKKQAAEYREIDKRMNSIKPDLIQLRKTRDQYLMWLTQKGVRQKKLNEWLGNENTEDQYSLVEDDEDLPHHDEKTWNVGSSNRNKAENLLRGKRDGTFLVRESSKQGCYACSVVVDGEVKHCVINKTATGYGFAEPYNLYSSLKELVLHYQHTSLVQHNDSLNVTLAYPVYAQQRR
# Sequence (O00329 whole entry): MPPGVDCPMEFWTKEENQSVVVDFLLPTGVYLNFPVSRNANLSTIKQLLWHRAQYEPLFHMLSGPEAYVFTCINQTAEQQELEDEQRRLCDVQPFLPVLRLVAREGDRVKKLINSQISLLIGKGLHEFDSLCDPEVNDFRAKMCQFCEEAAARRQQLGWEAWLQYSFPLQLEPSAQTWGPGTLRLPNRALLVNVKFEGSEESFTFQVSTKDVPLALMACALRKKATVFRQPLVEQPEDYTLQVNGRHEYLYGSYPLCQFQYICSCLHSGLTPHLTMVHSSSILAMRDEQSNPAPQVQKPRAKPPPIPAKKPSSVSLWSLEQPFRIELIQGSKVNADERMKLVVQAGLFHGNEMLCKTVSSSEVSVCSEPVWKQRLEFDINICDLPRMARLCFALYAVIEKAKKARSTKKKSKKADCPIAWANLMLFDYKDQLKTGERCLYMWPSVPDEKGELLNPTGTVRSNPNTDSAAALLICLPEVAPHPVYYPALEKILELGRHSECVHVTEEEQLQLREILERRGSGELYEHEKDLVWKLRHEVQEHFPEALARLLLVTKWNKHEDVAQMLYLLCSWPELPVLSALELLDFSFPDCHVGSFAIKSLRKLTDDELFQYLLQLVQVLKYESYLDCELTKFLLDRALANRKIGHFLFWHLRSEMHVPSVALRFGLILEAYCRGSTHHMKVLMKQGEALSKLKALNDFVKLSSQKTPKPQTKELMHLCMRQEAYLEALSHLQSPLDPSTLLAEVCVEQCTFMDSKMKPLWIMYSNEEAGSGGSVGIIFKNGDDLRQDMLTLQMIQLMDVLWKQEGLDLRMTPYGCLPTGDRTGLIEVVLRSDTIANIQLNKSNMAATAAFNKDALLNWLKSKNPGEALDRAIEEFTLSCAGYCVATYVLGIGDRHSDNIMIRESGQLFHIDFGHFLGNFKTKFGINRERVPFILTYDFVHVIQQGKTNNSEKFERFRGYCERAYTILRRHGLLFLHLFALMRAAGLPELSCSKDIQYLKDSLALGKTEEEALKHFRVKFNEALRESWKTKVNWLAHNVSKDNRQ
# ASSAY PROCEDURE: Inhibition of recombinant human full length His-tagged PI3K p110delta/p85alpha expressed in baculovirus expression system coexpressing PIK3R1 by TR-FRET assay
This listing pairs compounds with measured IC50.
Number in nM, nothing else.

Completed entries (count: 4):
Measured IC50 of "FC(F)c1nc2ccccc2n1-c1nc(N2CCNCC2)nc(N2CCOCC2)n1" : 142

The compound identified as "NOCCOCCOCCOCCC(=O)N1CCN(c2nc(N3CCOCC3)nc(-n3c(C(F)F)nc4ccccc43)n2)CC1" registered its IC50 at 1.3

So, "O=C(NOCCOCCOCCOCCN1CCN(c2nc(N3CCOCC3)nc(-n3c(C(F)F)nc4ccccc43)n2)CC1)c1ccc(F)c(F)c1Nc1ccc(I)cc1F" ? Its IC50 was 942

Consider "CC(=O)N1CCN(c2nc(N3CCOCC3)nc(-n3c(C(F)F)nc4ccccc43)n2)CC1" . Its measured IC50 is 2.9

Others:
Recorded IC50 (compound "O=C(NOCCOCCOCCOCCC(=O)N1CCN(c2nc(N3CCOCC3)nc(-n3c(C(F)F)nc4ccccc43)n2)CC1)c1ccc(F)c(F)c1Nc1ccc(I)cc1F" ): 41.7

---

Recorded measurements of IC50, one per entry
# TARGET OR SYSTEM: Dual specificity mitogen-activated protein kinase kinase 1 (Homo sapiens, UniProt Q02750)
# Sequence (Q02750 whole entry): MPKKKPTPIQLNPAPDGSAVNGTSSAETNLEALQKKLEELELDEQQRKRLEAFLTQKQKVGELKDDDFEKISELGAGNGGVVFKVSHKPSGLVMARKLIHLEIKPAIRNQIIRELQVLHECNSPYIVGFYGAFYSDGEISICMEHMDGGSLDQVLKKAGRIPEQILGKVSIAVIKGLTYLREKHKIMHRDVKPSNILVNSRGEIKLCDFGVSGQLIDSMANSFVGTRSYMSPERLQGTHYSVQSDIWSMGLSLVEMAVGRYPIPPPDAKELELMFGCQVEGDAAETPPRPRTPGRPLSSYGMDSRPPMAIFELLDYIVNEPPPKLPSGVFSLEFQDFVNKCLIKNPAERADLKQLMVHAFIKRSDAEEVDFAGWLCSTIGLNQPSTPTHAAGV
# ASSAY PROCEDURE: Inhibition of recombinant human GST-tagged MEK1 expressed in baculovirus infected Sf9 insect cells using inactive ERK2 as substrate preincubated for 30 mins followed by substrate addition measured after 2 hrs by kinase-glo reagent based bioluminescence assay
All answers are understood in nM, so give the number only.

Let me check: "O=C(NOCCOCCOCCOCCC(=O)N1CCN(c2nc(N3CCOCC3)nc(-n3c(C(F)F)nc4ccccc43)n2)CC1)c1ccc(F)c(F)c1Nc1ccc(I)cc1F" , system Dual specificity mitogen-activated protein kinase kinase 1 (Homo sapiens, UniProt Q02750), measured IC50 is 182

New cases:
Bench note, Dual specificity mitogen-activated protein kinase kinase 1 (Homo sapiens, UniProt Q02750): "O=C(NOCCOCCOCCOCCN1CCN(c2nc(N3CCOCC3)nc(-n3c(C(F)F)nc4ccccc43)n2)CC1)c1ccc(F)c(F)c1Nc1ccc(I)cc1F" , IC50 reads 398

---

# TARGET OR SYSTEM: PI3-kinase p110-alpha/p85-alpha (Homo sapiens, UniProt P42336)
# Sequence (P42336 whole entry, one chain of several): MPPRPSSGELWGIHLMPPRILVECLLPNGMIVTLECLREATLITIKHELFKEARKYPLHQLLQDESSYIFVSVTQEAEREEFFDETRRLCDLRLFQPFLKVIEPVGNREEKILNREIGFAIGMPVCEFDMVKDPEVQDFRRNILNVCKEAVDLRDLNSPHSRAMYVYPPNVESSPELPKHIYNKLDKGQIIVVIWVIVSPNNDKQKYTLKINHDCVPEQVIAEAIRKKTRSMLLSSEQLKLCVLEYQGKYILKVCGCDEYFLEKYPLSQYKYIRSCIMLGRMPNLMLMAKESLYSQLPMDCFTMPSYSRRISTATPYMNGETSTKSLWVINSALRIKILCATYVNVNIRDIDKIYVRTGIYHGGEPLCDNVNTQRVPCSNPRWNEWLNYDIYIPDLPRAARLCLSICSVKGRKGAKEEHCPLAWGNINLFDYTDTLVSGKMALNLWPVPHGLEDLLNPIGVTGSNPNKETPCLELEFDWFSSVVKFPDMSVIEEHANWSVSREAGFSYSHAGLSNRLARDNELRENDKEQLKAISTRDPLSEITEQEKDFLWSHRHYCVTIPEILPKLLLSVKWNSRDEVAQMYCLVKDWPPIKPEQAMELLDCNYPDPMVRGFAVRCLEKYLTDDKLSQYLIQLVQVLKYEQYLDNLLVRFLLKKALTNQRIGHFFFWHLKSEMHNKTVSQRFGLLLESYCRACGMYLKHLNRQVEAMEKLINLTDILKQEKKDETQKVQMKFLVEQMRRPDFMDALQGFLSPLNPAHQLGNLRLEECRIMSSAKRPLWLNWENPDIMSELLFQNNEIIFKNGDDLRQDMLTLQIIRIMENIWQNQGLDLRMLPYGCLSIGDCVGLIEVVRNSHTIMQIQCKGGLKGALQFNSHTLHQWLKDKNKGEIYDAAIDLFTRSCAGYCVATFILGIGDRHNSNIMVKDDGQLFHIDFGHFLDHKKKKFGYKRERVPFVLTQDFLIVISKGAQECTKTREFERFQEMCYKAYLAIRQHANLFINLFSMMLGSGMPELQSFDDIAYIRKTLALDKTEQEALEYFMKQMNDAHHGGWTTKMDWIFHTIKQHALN
# ASSAY PROCEDURE: Inhibition of recombinant human full length His-tagged PI3K p110alpha/p85alpha expressed in baculovirus expression system coexpressing PIK3R1 by TR-FRET assay
Note to self: IC50 under 10 nM means True, ties and anything higher get False.

Worked cases, answers included:
# input Does this compound meet the criterion IC50 < 10 nM? "O=C(NOCCOCCOCCOCCC(=O)N1CCN(c2nc(N3CCOCC3)nc(-n3c(C(F)F)nc4ccccc43)n2)CC1)c1ccc(F)c(F)c1Nc1ccc(I)cc1F"
# output False

# input Check if IC50 falls below 10 nM for "O=C(NOCCOCCOCCOCCN1CCN(c2nc(N3CCOCC3)nc(-n3c(C(F)F)nc4ccccc43)n2)CC1)c1ccc(F)c(F)c1Nc1ccc(I)cc1F" .
# output False

New cases:
# input Quick check: does "CC(=O)N1CCN(c2nc(N3CCOCC3)nc(-n3c(C(F)F)nc4ccccc43)n2)CC1" have IC50 under 10 nM?
# output True

# input Hello, is IC50 of the following compound strictly smaller than 10 nM? "FC(F)c1nc2ccccc2n1-c1nc(N2CCNCC2)nc(N2CCOCC2)n1"
# output False

# input Given "NOCCOCCOCCOCCC(=O)N1CCN(c2nc(N3CCOCC3)nc(-n3c(C(F)F)nc4ccccc43)n2)CC1" , is recorded IC50 strictly lower than 10 nM?
# output False
